target-entity: L-lactate dehydrogenase (Plasmodium falciparum (isolate CDC / Honduras))
method-notes: PfLDH activity inhibition – cell lysate, 3D7 strain, counter-screen for P. falciparum growth inhibition project (AID 2304);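 note: 0% = vehicle and 100% = reference inhibitor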
condition-summary: P. falciparum 3D7 crude extract, LDH APAD/NBT absorbance; at 2 µM; stronger effect = higher value
reported-property: inhibition (%)

1. N#Cc1ccccc1C(=O)N(Cc1cncn1Cc1cccc(F)c1)CC1CC1 = -1
2. COc1ccc(CNc2nc(NCCc3ccccc3)c3cc(OC)c(OC)cc3n2)cc1OC = 3
3. N#Cc1ccc2nc(-c3ccccc3)[nH]c2c1 = -1
4. CN(C)Cc1cccc(-c2ccc(Nc3nccc(NCC(O)c4ccccc4)n3)cc2)c1 (centres undefined) = 1
5. CC1CN(Cc2cccc(-c3ccc(-c4nc5ccccc5[nH]4)cc3)c2)CC(C)O1 (centres undefined) = -6
6. CN(C)c1ccc2c(c1)Sc1cc(N(C)C)ccc1N2C(=O)c1cccc(C(=O)O)c1 = -3
7. N#CCCN1CCN(Cc2ccc(-c3ccc(-c4nc5ccc(F)cc5[nH]4)s3)cc2)CC1 = 6
8. Oc1ccc(CCNc2nc(NCc3ccccc3-c3ccc(C(F)(F)F)cc3)nc(NC3CCNCC3)n2)cc1 = 4
9. CCOC(=O)CNC(=O)c1cc(=O)c2ccccc2o1 = -4
10. CC(=O)c1cccc(Nc2nc3c(C#N)c(OCc4cc(Cl)cc(Cl)c4)ccc3[nH]2)c1 = 0
11. Cc1ccc(O)cc1Nc1ccnc2cc(-c3csc(CNCCN4CCOCC4)n3)ccc12 = -3
12. COc1ccc2nc3cc(Cl)ccc3c(NCCCCN3CCNCC3)c2c1 = -5
13. CN(CCCN(C)c1cc(NC(=O)c2cccc(F)c2)ccn1)Cc1cccc(O)c1 = -1
14. CC1(C)[C@H]2CC[C@@H](CNc3nc(NCCc4cnc[nH]4)nc(Nc4ccc(Oc5ccccc5)cc4)n3)[C@@H]1C2 = 3
15. c1ccc2c(Nc3ccc(Oc4ccc(Nc5c6ccccc6nc6ccccc56)cc4)cc3)c3ccccc3nc2c1 = -2
16. CCOc1cc(C)ccc1N(C1CCN(CCCCNC(=O)c2ccc(-c3ccc(C(F)(F)F)cc3)cc2)CC1)S(=O)(=O)c1ccccc1 = -4
17. Cc1nnsc1C(=O)Nc1ccc(-c2cccc(-c3nc4ccc(C(F)(F)F)cc4[nH]3)c2)cc1 = 2
18. CCOC(=O)NOC(C(=O)O)c1ccccc1 (centres undefined) = -1
19. c1ccc(CCNCc2ccc(-c3cccc(-c4nc5ccccc5[nH]4)c3)cc2)nc1 = 7
20. Cc1[nH]n(-c2cccc(C(F)(F)F)c2)c(=O)c1-c1ccc(Cl)cc1 = -4
21. Cc1cc(O)c(CN(C)Cc2ccc3c(c2)OCCO3)cc1C(C)C = -3
22. Cc1cccc2[nH]c(-c3cccc(-c4ccc(NC(=O)c5cnc[nH]5)cc4)c3)nc12 = 3
23. COc1ccc2c(OC)ccc(CNCCCCCCNCc3ccc(OC)c4ccc(OC)cc34)c2c1 = -3
24. CCOC(=O)c1cnc2cc(N3CCCC3)c(Cl)cc2c1OCC = -2
25. OC(CNCc1ccccc1OCc1ccccc1)c1cccc(Cl)c1 (centres undefined) = 7
26. COc1ccccc1Oc1c(N(C)S(=O)(=O)c2ccc(C(C)C)cc2)nc(C(F)(F)F)nc1N(C)S(=O)(=O)c1ccc(C(C)C)cc1 = -6
27. CC(=O)Nc1ccc(CN2CCC(NC(=O)c3ccc(-c4cccc(C(F)(F)F)c4)s3)CC2)cc1 = -3
28. Cc1cc(C(F)(F)F)nn1-c1ccc(NC(=O)c2ccco2)cc1 = -3
29. COc1ccc2ncc(F)c([C@@H](O)CN3CCC(NCc4cc5c(cn4)OCS5)CC3)c2c1 = -2
30. COc1ccc(CNCc2ccc(F)cc2)cc1-c1ccc(S(=O)(=O)NCCN2CCCC2)s1 = -1
31. Nc1c(-c2ccc(C(=O)NCCNCc3ccccc3)cc2)cnn1-c1ccc(C(F)(F)F)cc1 = 1
32. CCC[C@@H]([C@@H](CC1CCCCC1)C(=O)N[C@H](C(=O)Nc1nccs1)[C@H](C)O)N(O)C=O = -5
33. ON=C1c2cc(OCCN3CCCCC3)c(Cl)cc2-c2cc(Cl)c(OCCN3CCCCC3)cc21 = 5
34. O=C(Nc1cccc(-c2csc(-c3nc4ccccc4[nH]3)c2)c1)c1cccnc1 = -5
35. CCCCN1CCN(CC(O)CNC(=O)Nc2ccc(Cl)cc2)CC1 (centres undefined) = -3
36. O=S(=O)(Nc1cc2c(cc1O)CCN(C1CCC1)CC2)c1ccc(Oc2ccc(F)cc2)cc1 = 0
37. Cc1cccc2[nH]c(-c3cccc(-c4ccc(NC(=O)CN5CCN(C)CC5)cc4)c3)nc12 = -8
38. CCn1c(-c2nonc2N)nc2cnc(Oc3cccc(NC(=O)c4ccc(OCCN5CCCC5)cc4)c3)cc21 = 2
39. COc1ccc(NC(=O)Nc2cc(C)nc3ccccc23)cc1Cl = -2
